experiment: qHTS for differential inhibitors of proliferation of Plasmodium falciparum line HB3 (AID 1886); details: Plasmodium falciparum HB3 proliferation inhibition; series mostly up to 28.7 µM;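 further: parasites grown with compound for 72 h before SYBR Green readout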
Records with an inconclusive call do not appear. The source made the active and inactive calls. The call rests on the fitted dose curve; in most records, active means well fitted curve in the direction sought with a large enough effect; inconclusive means small, poorly fitted or top-dose-only effect, or another doubt; inactive means no such curve, though single readings can be large or run the other way.
Outcomes: 1 (active), -1 (inactive)

{"columns": ["MOLECULE", "CLASS ASSIGNMENT"],
 "data": [
  ["COCCc1ccc(OCC(O)CNC(C)C)cc1 (stereo unspecified)", -1],
  ["CC(C)COCC(CN(Cc1ccccc1)c1ccccc1)N1CCCC1 (stereo unspecified)", -1],
  ["CN1CCN(CC(=O)N2c3ccccc3C(=O)Nc3cccnc32)CC1", -1],
  ["Cc1ccc(Cl)c(Nc2ccccc2C(=O)O)c1Cl", -1],
  ["CC(C)NNC(=O)c1ccncc1", -1],
  ["COc1ccc(CN(CCN(C)C)c2ccccn2)cc1", -1],
  ["CCCCNc1ccc(C(=O)OCCN(C)C)cc1", -1],
  ["CC1=C(C)C(=O)C(CCCCC#CCCCC#CCO)=C(C)C1=O", 1],
  ["Cc1cc(C)c(/C=C2\\C(=O)Nc3ccccc32)[nH]1", -1],
  ["CC(C(=O)O)c1ccc(CC2CCCC2=O)cc1 (stereo unspecified)", -1],
  ["CCC(=O)c1ccc2c(c1)N(CCCN(C)C)c1ccccc1S2", 1],
  ["COc1ccc(CCN(C)CCCC(C#N)(c2cc(OC)c(OC)c(OC)c2)C(C)C)cc1OC (stereo unspecified)", 1],
  ["CCCCCN(CCCCC)C(=O)C(CCC(=O)O)NC(=O)c1ccc(Cl)c(Cl)c1 (stereo unspecified)", -1],
  ["OCCN1CCN(CC/C=C2/c3ccccc3Sc3ccc(C(F)(F)F)cc32)CC1", 1],
  ["O=C(O)CN(CCOCCOCCN(CC(=O)O)CC(=O)O)CC(=O)O", -1],
  ["O=C1CC2(CCCC2)CC(=O)N1CCCCN1CCN(c2ncccn2)CC1", -1],
  ["O=C(O)CP(=O)(O)O", -1],
  ["CC(=O)Oc1cc(C(C)C)c(OCCN(C)C)cc1C", -1],
  ["Cc1ccc(=O)n(-c2ccccc2)c1", -1],
  ["N[C@@H](COP(=O)(O)O)C(=O)O", -1],
  ["NC(Cc1ccc(Cl)cc1)C(=O)O (stereo unspecified)", -1],
  ["O=C1NCN(c2ccccc2)C12CCN(CCCC(c1ccc(F)cc1)c1ccc(F)cc1)CC2", 1],
  ["O=C(O)CCCCCCCC(=O)O", -1],
  ["CCN(Cc1ccncc1)C(=O)C(CO)c1ccccc1 (stereo unspecified)", -1],
  ["CC(C)NCC(O)c1cc(O)cc(O)c1 (stereo unspecified)", -1],
  ["CNCCC(Oc1ccccc1OC)c1ccccc1 (stereo unspecified)", -1],
  ["CC1=NS(=O)(=O)c2cc(Cl)ccc2N1", -1],
  ["CN(C)CC[C@@H](c1ccc(Br)cc1)c1ccccn1", -1],
  ["CCN1CCc2nc(N)oc2CC1", -1],
  ["O=c1[nH]c(=O)n([C@H]2C[C@H](O)[C@@H](CO)O2)cc1Br", -1],
  ["C[C@]12C=CC(=O)C=C1CC[C@H]1[C@@H]3C[C@@H](O)[C@](O)(C(=O)CO)[C@@]3(C)C[C@H](O)[C@@]12F", -1],
  ["O=C(O)CN(CCN(CC(=O)O)CC(=O)O)CCN(CC(=O)O)CC(=O)O", -1],
  ["Nc1c2c(nc3ccccc13)CCCC2O (stereo unspecified)", -1],
  ["CN(C)CCOC(=O)COc1ccc(Cl)cc1", -1],
  ["COc1cc2c(cc1OC)-c1cc(=Nc3c(C)cc(C)cc3C)n(C)c(=O)n1CC2", 1],
  ["CCN(CC)CCNC(=O)c1ccc(NC(C)=O)cc1", -1]
]}

Data origin, for the record: PubChem BioAssay (NCATS)
